# measurement.target: DC-SIGNR (Homo sapiens, UniProt Q9H2X3)
# Construct: purchased R&D Systems 162-D2
# Sequence (Q9H2X3 whole entry): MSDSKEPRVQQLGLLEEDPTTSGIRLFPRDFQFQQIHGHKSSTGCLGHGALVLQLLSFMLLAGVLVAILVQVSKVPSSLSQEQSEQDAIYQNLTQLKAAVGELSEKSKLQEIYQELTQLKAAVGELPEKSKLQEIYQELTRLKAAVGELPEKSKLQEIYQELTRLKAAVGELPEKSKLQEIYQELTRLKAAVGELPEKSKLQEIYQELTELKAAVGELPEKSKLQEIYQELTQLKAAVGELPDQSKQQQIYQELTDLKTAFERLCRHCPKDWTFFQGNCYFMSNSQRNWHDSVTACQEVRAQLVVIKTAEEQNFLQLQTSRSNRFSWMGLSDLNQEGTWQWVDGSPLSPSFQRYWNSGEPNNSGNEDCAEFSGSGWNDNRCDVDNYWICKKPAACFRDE
# procedure.summary: In vitro glycan array protein binding, DC-SIGNR
# condition.details: 20 μg/mL protein, glycan printed at 100 μM
value.type: Binding to DC-SIGNR (20 μg/ml)(RFU)

>>> experimental_result("CC(=O)N[C@H]1[C@H](O[C@H]2[C@@H](O)[C@@H](CO)O[C@@H](O[C@H]3[C@H](O)[C@@H](O)C(O)O[C@@H]3CO)[C@@H]2O)O[C@H](CO)[C@@H](O[C@@H]2O[C@H](CO)[C@H](O)[C@H](O[C@H]3O[C@H](CO)[C@H](O)[C@H](O)[C@H]3O)[C@H]2O)[C@@H]1O[C@@H]1O[C@@H](C)[C@@H](O)[C@@H](O)[C@@H]1O (stereo partly drawn) [K-31]")
543554.7
>>> experimental_result("CC(=O)NC1C(OC2C(O)C(CO)OC(OC3C(CO)OC(O)C(O)C3O)C2O)OC(CO)C(OC2OC(CO)C(O)C(OC3OC(CO)C(OC4OC(CO)C(O)C(O)C4OC4OC(C)C(O)C(O)C4O)C(O)C3NC(C)=O)C2O)C1O (stereo not drawn) [K-22]")
1047827
>>> experimental_result("CC(=O)N[C@H]1[C@H](O[C@H]2[C@@H](O)[C@@H](CO)O[C@@H](O[C@H]3[C@H](O)[C@@H](O)C(O)O[C@@H]3CO)[C@@H]2O)O[C@H](CO)[C@@H](O[C@@H]2O[C@H](CO)[C@H](O)[C@H](O)[C@H]2O[C@@H]2O[C@@H](C)[C@@H](O)[C@@H](O)[C@@H]2O)[C@@H]1O (stereo partly drawn) [K-30, Fuca1-2Galb1-4GlcNAcb1-3Galb1-4Glc]")
631597

Reference source: patent US20250242035A1
